What inhibition at 10 µM was measured for each of the following?
measured target: human glucagon receptor (Homo sapiens, UniProt P47871)
Construct: made in house; host or cells: FreeStyle CHO cells, transient transfection with pMSRαneo/hGCGR; membrane fraction (35,000 rpm pellet)
Sequence (P47871 26-477): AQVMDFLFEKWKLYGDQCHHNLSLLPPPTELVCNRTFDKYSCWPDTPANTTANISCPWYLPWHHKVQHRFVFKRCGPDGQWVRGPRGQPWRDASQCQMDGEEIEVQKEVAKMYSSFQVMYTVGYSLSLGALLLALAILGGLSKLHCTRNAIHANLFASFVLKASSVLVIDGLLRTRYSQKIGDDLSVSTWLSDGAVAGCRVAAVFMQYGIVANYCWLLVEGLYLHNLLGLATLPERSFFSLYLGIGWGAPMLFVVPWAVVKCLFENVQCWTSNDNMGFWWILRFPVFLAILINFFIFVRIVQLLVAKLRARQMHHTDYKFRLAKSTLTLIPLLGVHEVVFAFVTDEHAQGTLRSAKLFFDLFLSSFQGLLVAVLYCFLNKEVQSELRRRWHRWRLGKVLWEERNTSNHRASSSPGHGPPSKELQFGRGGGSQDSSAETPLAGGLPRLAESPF
protocol summary: Glucagon binding inhibitory activity ([125I]-glucagon binding to glucagon receptor membrane protein)
recorded conditions: test compound 10 μM; 0.4% DMSO = 0%, non-labeled glucagon 1 μM = 100%; read-out: inhibitory rate (%) at 10 μM
One number for each entry, in %.

Consider the following illustrative entries.
- compound: "Cc1c(C(COc2ccccc2)Nc2ccc(C(=O)NCCC(=O)O)cc2)oc2ccccc12 (centres unmarked)"
  measured target: "human glucagon receptor (Homo sapiens, UniProt P47871)"
  measurement kind: "inhibition at 10 µM"
  uom: "%"
  endpoint value: 57
- compound: "CCC(CC)C(Nc1ccc(C(=O)NCCC(=O)O)cc1)c1sc2ccccc2c1C (centres unmarked)"
  measured target: "human glucagon receptor (Homo sapiens, UniProt P47871)"
  measurement kind: "inhibition at 10 µM"
  uom: "%"
  endpoint value: 82
- compound: "COc1ccc2oc(C(Nc3ccc(C(=O)N(C)CCC(=O)O)cc3)C3CCCCC3)cc2c1 (centres unmarked)"
  measured target: "human glucagon receptor (Homo sapiens, UniProt P47871)"
  measurement kind: "inhibition at 10 µM"
  uom: "%"
  endpoint value: 60
- compound: "COc1ccc2oc(C(Nc3ccc(C(=O)N(C)CCC(=O)O)cc3)c3ccccc3)c(C)c2c1 (centres unmarked)"
  measured target: "human glucagon receptor (Homo sapiens, UniProt P47871)"
  measurement kind: "inhibition at 10 µM"
  uom: "%"
  endpoint value: 70
- compound: "Cc1nn(-c2ccc(Cl)cc2)cc1C(Nc1ccc(C(=O)N(C)CCC(=O)O)cc1)C1CCCCC1 (centres unmarked)"
  measured target: "human glucagon receptor (Homo sapiens, UniProt P47871)"
  measurement kind: "inhibition at 10 µM"
  uom: "%"
  endpoint value: 79
- compound: "Cc1c(C(Nc2ccc(C(=O)N(C)CCC(=O)O)cc2)C2CCCCC2)oc2ccc(N3CCSCC3)cc12 (centres unmarked)"
  measured target: "human glucagon receptor (Homo sapiens, UniProt P47871)"
  measurement kind: "inhibition at 10 µM"
  uom: "%"
  endpoint value: 90
- compound: "Cc1c(C(Nc2ccc(C(=O)N(C)CCC(=O)O)cc2)C(C)C)oc2cccc(F)c12 (centres unmarked)"
  measured target: "human glucagon receptor (Homo sapiens, UniProt P47871)"
  measurement kind: "inhibition at 10 µM"
  uom: "%"
  endpoint value: 68

Here is another compound to look at.
### Prompt Param item = CCc1oc2ccccc2c1C(Nc1ccc(C(=O)N(C)CCC(=O)O)cc1)C1CCCCC1 (centres unmarked) ; retrieve measured inhibition at 10 µM.
### Response 64

* * *

Please go through the items and note down their inhibition at 10 µM.
measured target: human glucagon receptor (Homo sapiens, UniProt P47871)
Construct: made in house; host or cells: FreeStyle CHO cells, transient transfection with pMSRαneo/hGCGR; membrane fraction (35,000 rpm pellet)
protocol summary: Glucagon binding inhibitory activity ([125I]-glucagon binding to glucagon receptor membrane protein)
recorded conditions: test compound 10 μM; 0.4% DMSO = 0%, non-labeled glucagon 1 μM = 100%; read-out: inhibitory rate (%) at 10 μM
Answers are plain numbers, in %.

- molecule: "Cc1c(C(Nc2ccc(C(=O)N(C)CCC(=O)O)cc2)C2CCCCC2)sc2ncccc12 (stereo not shown) [Example A143]"
  inhibition at 10 µM / %: 75
- molecule: "Cc1c(C(CC(C)C)Nc2ccc(C(=O)N(C)CCC(=O)O)cc2)oc2ccccc12 (stereo not shown) [Example A24]"
  inhibition at 10 µM / %: 70
- molecule: "Cc1c(C(Nc2ccc(C(=O)N(C)CCC(=O)O)cc2)C2CCCC2)oc2ccc(F)cc12 (stereo not shown) [Example A68]"
  inhibition at 10 µM / %: 82

--- query ---
### Prompt Lab request: please report inhibition at 10 µM under test system human glucagon receptor (Homo sapiens, UniProt P47871) for Cc1c(C(Nc2ccc(C(=O)N(C)CCC(=O)O)cc2)C2CCCCC2)oc2ccccc12 (stereo not shown) [Example A16]
### Response 74

* * *

Kindly state inhibition at 10 µM for each of the entries shown.
measured target: human glucagon receptor (Homo sapiens, UniProt P47871)
Construct: made in house; host or cells: FreeStyle CHO cells, transient transfection with pMSRαneo/hGCGR; membrane fraction (35,000 rpm pellet)
protocol summary: Glucagon binding inhibitory activity ([125I]-glucagon binding to glucagon receptor membrane protein)
recorded conditions: test compound 10 μM; 0.4% DMSO = 0%, non-labeled glucagon 1 μM = 100%; read-out: inhibitory rate (%) at 10 μM
Answers are plain numbers, in %.

Example entries and their recorded answers appear below.
- molecule: "COc1cccc(-n2cc(C(Nc3ccc(C(=O)N(C)CCC(=O)O)cc3)C3CCCCC3)c(C(C)C)n2)c1 (stereo not drawn)"
  measured target: "human glucagon receptor (Homo sapiens, UniProt P47871)"
  inhibition at 10 µM, %: 67
- molecule: "Cc1nn(-c2ccccc2)cc1C(Nc1ccc(C(=O)NCCC(=O)O)cc1)C1CCCCC1 (stereo not drawn)"
  measured target: "human glucagon receptor (Homo sapiens, UniProt P47871)"
  inhibition at 10 µM, %: 80
- molecule: "COc1ccc2oc(C(Nc3ccc(C(=O)NCCC(=O)O)cc3)C3CCCCC3)c(C#N)c2c1 (stereo not drawn)"
  measured target: "human glucagon receptor (Homo sapiens, UniProt P47871)"
  inhibition at 10 µM, %: 58

Need inhibition at 10 µM for each of these molecules.
1. CN(CCC(=O)O)C(=O)c1ccc(NC(c2cn(-c3ccccc3)nc2CCc2ccccc2)C2CCCCC2)cc1 (stereo not drawn)
2. COc1ccc2oc(C(Nc3ccc(C(=O)NCCC(=O)O)cc3)C3CCCCC3)cc2c1 (stereo not drawn)
3. Cc1c(C(Nc2ccc(C(=O)N(C)CCC(=O)O)cc2)C2CCCCC2)oc2ccc(-c3cnn(C)c3)cc12 (stereo not drawn)
4. COCc1nn(-c2ccccc2)cc1C(Nc1ccc(C(=O)N(C)CCC(=O)O)cc1)C1CCCCC1 (stereo not drawn)
5. CN(CCC(=O)O)C(=O)c1ccc(NC(c2cn(-c3ccc(C(F)(F)F)cn3)nc2C(C)(C)C)C2CCCCC2)cc1 (stereo not drawn)
6. COCc1c(C(Nc2ccc(C(=O)NCCC(=O)O)cc2)C2CCCCC2)oc2ccc(F)cc12 (stereo not drawn)

### Response
1. 63
2. 66
3. 88
4. 53
5. 71
6. 67

Answer for every listed entry: what is its inhibition at 10 µM? The entries follow.
1. Cc1c(C(CC(C)C)Nc2ccc(C(=O)N(C)CCC(=O)O)cc2)sc2ccccc12 (stereo not drawn)
2. Cc1c(C(Nc2ccc(C(=O)NCCC(=O)O)cc2)C2CCCC2)oc2ccc(F)cc12 (stereo not drawn)
3. COc1ccccc1-n1cc(C(Nc2ccc(C(=O)N(C)CCC(=O)O)cc2)C2CCCCC2)c(C)n1 (stereo not drawn)
4. Cc1c(C(Nc2ccc(C(=O)N(C)CCC(=O)O)cc2)C2CCCCC2)sc2cnccc12 (stereo not drawn)

### Response
1: 72; 2: 86; 3: 51; 4: 62

Quick request: inhibition at 10 µM for each listed item, please.
1. Cc1c(C(Nc2ccc(C(=O)N(C)CCC(=O)O)cc2)C2CCCCC2)oc2ccc(OCc3cccnc3)cc12 (stereo not drawn)
2. COCc1nn(-c2ccc(OC(F)(F)F)cc2)cc1C(Nc1ccc(C(=O)NCCC(=O)O)cc1)C1CCCCC1 (stereo not drawn)

### Response
1: 80; 2: 75

* * *

measured target: human glucagon receptor (Homo sapiens, UniProt P47871)
Construct: made in house; host or cells: FreeStyle CHO cells, transient transfection with pMSRαneo/hGCGR; membrane fraction (35,000 rpm pellet)
protocol summary: Glucagon binding inhibitory activity ([125I]-glucagon binding to glucagon receptor membrane protein)
recorded conditions: test compound 10 μM; 0.4% DMSO = 0%, non-labeled glucagon 1 μM = 100%; read-out: inhibitory rate (%) at 10 μM
Rule: inhibition at 10 µM under 80% gives Condition not met, otherwise Condition met.

- compound: "CCc1nn(-c2ccc(C(F)(F)F)cn2)cc1C(Nc1ccc(C(=O)N(C)CCC(=O)O)cc1)C1CCCCC1 (stereo not shown)"
  assigned label: "Condition not met"
- compound: "O=C(O)CCNC(=O)c1ccc(NC(c2csc3ccccc23)C2CCCCC2)cc1 (stereo not shown)"
  assigned label: "Condition not met"

### Prompt Is reported inhibition at 10 µM greater than or equal to 80% here: COc1ccc(-c2ccc3oc(C(Nc4ccc(C(=O)N(C)CCC(=O)O)cc4)C(C)C)c(C)c3c2)cn1 (stereo not shown)
### Response Condition met

### Prompt Thanks! And CCc1nn(-c2ccc(OC)cc2)cc1C(Nc1ccc(C(=O)NCCC(=O)O)cc1)C1CCCCC1 (stereo not shown) ?
### Response Condition not met

### Prompt Also, Cc1c(C(Nc2ccc(C(=O)N(C)CCC(=O)O)cc2)C2CCCCC2)oc2ccc(Oc3ncccc3C#N)cc12 (stereo not shown) please.
### Response Condition met

### Prompt Then this compound: Cc1c(C(Nc2ccc(C(=O)N(C)CCC(=O)O)cc2)C2CCCCC2)oc2ccc(OC3CCOCC3)cc12 (stereo not shown) [Example A82]
### Response Condition met
